These entries and their values trace back to ChEMBL document CHEMBL1909046.

- SYSTEM NAME: 5-hydroxytryptamine receptor 6 (Homo sapiens, UniProt P50406); further: in other assays of this panel Not Active means under 50% inhibition at 10 µM
- Sequence (P50406 whole entry): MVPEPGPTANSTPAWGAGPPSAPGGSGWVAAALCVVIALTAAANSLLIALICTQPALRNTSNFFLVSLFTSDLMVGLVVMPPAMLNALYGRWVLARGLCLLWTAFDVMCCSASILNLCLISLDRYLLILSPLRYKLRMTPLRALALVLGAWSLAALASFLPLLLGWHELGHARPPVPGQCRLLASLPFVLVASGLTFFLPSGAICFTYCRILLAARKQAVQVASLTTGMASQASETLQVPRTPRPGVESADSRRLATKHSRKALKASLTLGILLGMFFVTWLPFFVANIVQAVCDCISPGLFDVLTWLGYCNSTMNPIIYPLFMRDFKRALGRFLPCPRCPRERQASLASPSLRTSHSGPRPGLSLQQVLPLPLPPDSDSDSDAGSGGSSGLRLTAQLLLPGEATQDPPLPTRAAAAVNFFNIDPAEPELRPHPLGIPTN
- Assay type: cell membranes, HeLa, Membrane
- CONDITIONS: hela
READOUT TYPE: IC50

Use the examples below as a reference point.
CC[C@H]1OC(=O)[C@H](C)[C@@H](O[C@H]2C[C@@](C)(OC)[C@@H](O)[C@H](C)O2)[C@H](C)[C@@H](O[C@@H]2O[C@H](C)C[C@H](N(C)C)[C@H]2O)[C@](C)(OC)C[C@@H](C)C(=O)[C@H](C)[C@@H](O)[C@]1(C)O
Not Active
O=c1cc(-c2ccccc2)oc2ccc3ccccc3c12
Not Active
C=C(CC)C(=O)c1ccc(OCC(=O)O)c(Cl)c1Cl
Not Active
NC[C@H]1O[C@H](O[C@H]2[C@H](O)[C@@H](O[C@H]3O[C@H](CO)[C@@H](O)[C@H](N)[C@H]3O)[C@H](N)C[C@@H]2N)[C@H](N)C[C@@H]1O
Not Active

# batch: return IC50 for each of the 2 compounds below
1. [N-]=[N+]=CC(=O)OC[C@H](N)C(=O)O
2. Cc1cccc(Nc2ccccc2C(=O)O)c1C

Response line:
1: Not Active; 2: Not Active

Prompt line: Give its IC50 value. Item: "CCOC(=O)n1ccn(C)c1=S"
Response line: Not Active

###

- ASSAY: DRUGMATRIX: Interleukin IL-1 radioligand binding (ligand: [125I] interleukin 1beta)
- Assay type: cell membranes, Membrane
- CONDITIONS: nih3t3; Not Active = under 50% inhibition at 10 µM
READOUT TYPE: Ki

CCC(=O)O[C@H]1[C@H](O[C@@H]2[C@@H](C)[C@H](O[C@H]3C[C@@](C)(OC)[C@@H](O)[C@H](C)O3)[C@@H](C)C(=O)O[C@H](CC)[C@@](C)(O)[C@H](O)[C@@H](C)C(=O)[C@H](C)C[C@@]2(C)O)O[C@H](C)C[C@@H]1N(C)C [ERYTHROMYCIN PROPIONATE]
Not Active
CN[C@@H]1[C@H](O)[C@H](NC)[C@H]2O[C@@]3(O)C(=O)C[C@@H](C)O[C@H]3O[C@@H]2[C@H]1O
Not Active
C[C@]12C/C(=C/O)C(=O)C[C@@H]1CC[C@@H]1[C@@H]2CC[C@@]2(C)[C@H]1CC[C@]2(C)O
Not Active
NC(=O)N1c2ccccc2C=Cc2ccccc21 [CARBAMAZEPINE]
Not Active

###

- SYSTEM NAME: Interstitial collagenase (Homo sapiens, UniProt P03956);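 further: MMP-1 enzyme inhibition assay using a peptide substrate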; further: in other assays of this panel Not Active means under 50% inhibition at 10 µM
- Sequence (P03956 whole entry): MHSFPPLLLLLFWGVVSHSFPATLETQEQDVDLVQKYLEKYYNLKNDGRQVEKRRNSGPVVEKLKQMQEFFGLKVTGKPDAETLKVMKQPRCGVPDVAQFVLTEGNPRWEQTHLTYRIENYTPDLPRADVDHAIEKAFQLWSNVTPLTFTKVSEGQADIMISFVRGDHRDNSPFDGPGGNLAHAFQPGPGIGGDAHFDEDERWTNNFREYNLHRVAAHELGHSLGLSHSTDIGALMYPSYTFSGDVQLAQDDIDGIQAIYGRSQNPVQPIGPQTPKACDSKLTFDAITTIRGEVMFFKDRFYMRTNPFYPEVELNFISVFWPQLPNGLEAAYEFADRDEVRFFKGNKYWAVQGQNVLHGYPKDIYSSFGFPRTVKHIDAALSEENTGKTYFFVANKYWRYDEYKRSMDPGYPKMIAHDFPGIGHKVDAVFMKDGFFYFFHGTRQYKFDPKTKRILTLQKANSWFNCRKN
- Format: tissue-based, Rheumatoid synovial fibroblasts
READOUT TYPE: Ki

Use the examples below as a reference point.
STANNOUS FLUORIDE
Not Active
COBALT(II) ACETYLACETONATE
Not Active
INSULIN HUMAN
Not Active
POLYVINYL ALCOHOL
Not Active

As a next step, examine the substance that follows.
Prompt line: Give its Ki value. Item: "THIMEROSAL"
Response line: Not Active

###

- ASSAY: DRUGMATRIX: Imidazoline I2, Central radioligand binding (ligand: [3H] Idazoxan)
- Assay type: cell membranes, Rattus norvegicus, Wistar, Cerebral cortex, Membrane
- CONDITIONS: Not Active = under 50% inhibition at 10 µM; read-out: Ki
Would you kindly list Ki for each of these compounds?
Give bare numbers, in nM.

Use the examples below as a reference point.
CC(C)C[C@H]1C(=O)N2CCC[C@H]2[C@]2(O)O[C@](NC(=O)[C@@H]3C=C4c5cccc6[nH]c(Br)c(c56)C[C@H]4N(C)C3)(C(C)C)C(=O)N12
35
CN1C[C@H](C(=O)N[C@]2(C)O[C@@]3(O)[C@@H]4CCCN4C(=O)[C@H](Cc4ccccc4)N3C2=O)C[C@@H]2c3cccc4[nH]cc(c34)C[C@H]21 [DIHYDROERGOTAMINE]
1.67
N=C(N)N/N=C/c1c(Cl)cccc1Cl
12

As a next step, examine the compound that follows.
Prompt line: Give its Ki value. Item: "C#CCN(C)[C@H](C)Cc1ccccc1"
Response line: 1080

###

- ASSAY: DRUGMATRIX: GABAA, Chloride Channel, TBOB radioligand binding (ligand: [3H] TBOB)
- Assay type: cell membranes, Rattus norvegicus, Wistar, Cerebral cortex, Membrane
- CONDITIONS: Not Active = under 50% inhibition at 10 µM
READOUT TYPE: IC50

Use the examples below as a reference point.
CCOC(N)=O
Not Active
C[C@H]([C@](O)(Cn1cncn1)c1ccc(F)cc1F)S(C)(=O)=O [GENACONAZOLE]
Not Active
CO[C@@]1(NC(=O)CSCC#N)C(=O)N2C(C(=O)O)=C(CSc3nnnn3C)CS[C@@H]21 [CEFMETAZOLE]
Not Active
C[C@@H]1CC[C@H]2[C@@H](C)C(=O)O[C@@H]3O[C@@]4(C)CC[C@@H]1[C@]32OO4 [ARTEMISININ]
Not Active

# batch: return IC50 for each of the 5 compounds below
1. CCc1oc2ccccc2c1C(=O)c1cc(Br)c(O)c(Br)c1 [BENZBROMARONE]
2. CCCCC1C(=O)N(c2ccccc2)N(c2ccccc2)C1=O [PHENYLBUTAZONE]
3. O=C(O)C(Cl)(Cl)Cl [TRICHLOROACETIC ACID]
4. CC(C)C[C@H]1C(=O)N2CCC[C@H]2[C@]2(O)O[C@](NC(=O)[C@@H]3C=C4c5cccc6[nH]c(Br)c(c56)C[C@H]4N(C)C3)(C(C)C)C(=O)N12 [BROMOCRIPTINE]
5. Cc1cccc(Nc2cc(Cl)nc(SCC(=O)O)n2)c1C [PIRINIXIC ACID]

Response line:
1: Not Active; 2: Not Active; 3: Not Active; 4: Not Active; 5: Not Active

# batch: return IC50 for each of the 3 compounds below
1. NC[C@@H]1O[C@H](O[C@H]2[C@@H](O)[C@H](O[C@@H]3[C@@H](O)[C@H](N)C[C@H](N)[C@H]3O[C@H]3O[C@H](CN)[C@@H](O)[C@H](O)[C@H]3N)O[C@@H]2CO)[C@H](N)[C@@H](O)[C@@H]1O [FRAMYCETIN]
2. Cc1cn([C@H]2C[C@H](N=[N+]=[N-])[C@@H](CO)O2)c(=O)[nH]c1=O [ZIDOVUDINE]
3. CN[C@@H]1[C@H](O)[C@H](NC)[C@H]2O[C@@]3(O)C(=O)C[C@@H](C)O[C@H]3O[C@@H]2[C@H]1O [SPECTINOMYCIN]

Response line:
["Not Active", "Not Active", "Not Active"]

# batch: return IC50 for each of the 4 compounds below
1. CCn1cc(C(=O)O)c(=O)c2cc(F)c(N3CCNCC3)nc21 [ENOXACIN]
2. CCOC(=O)[C@H](CCc1ccccc1)N[C@@H](C)C(=O)N1CCC[C@H]1C(=O)O
3. CC(C(=O)O)c1ccc(-c2ccccc2)c(F)c1 (stereo unspecified) [FLURBIPROFEN]
4. COc1cc(N)nc2[nH]c(-c3ccc(F)cc3)c(-c3ccncc3)c12

Response line:
1: Not Active; 2: Not Active; 3: Not Active; 4: Not Active

###

- SYSTEM NAME: Amine oxidase [flavin-containing] A (Homo sapiens)
- Sequence (P21397 whole entry): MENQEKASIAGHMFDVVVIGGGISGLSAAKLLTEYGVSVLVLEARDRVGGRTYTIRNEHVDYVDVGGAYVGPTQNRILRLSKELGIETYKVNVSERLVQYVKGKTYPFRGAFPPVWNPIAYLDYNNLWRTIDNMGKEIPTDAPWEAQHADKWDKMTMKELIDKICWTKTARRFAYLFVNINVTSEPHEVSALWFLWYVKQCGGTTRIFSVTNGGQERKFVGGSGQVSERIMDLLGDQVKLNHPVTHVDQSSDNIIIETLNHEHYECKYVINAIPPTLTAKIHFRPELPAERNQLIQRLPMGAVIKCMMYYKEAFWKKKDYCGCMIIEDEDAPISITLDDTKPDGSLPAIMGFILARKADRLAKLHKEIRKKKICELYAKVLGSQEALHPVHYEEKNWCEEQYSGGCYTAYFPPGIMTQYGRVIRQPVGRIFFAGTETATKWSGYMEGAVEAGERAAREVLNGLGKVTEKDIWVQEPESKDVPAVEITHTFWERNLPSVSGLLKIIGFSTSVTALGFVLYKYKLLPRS
- ASSAY: DRUGMATRIX: Monoamine Oxidase MAO-A enzyme inhibition (substrate: Kynuramine)
- Design: species or system BTI-TN-5B1-4
- CONDITIONS: bti-tn-5b1-4; Not Active = under 50% inhibition at 10 µM
READOUT TYPE: Ki

Use the examples below as a reference point.
INSULIN HUMAN
Not Active
COBALT(II) ACETYLACETONATE
Not Active
STANNOUS FLUORIDE
Not Active
THIMEROSAL
Not Active

As a next step, examine the substance that follows.
Prompt line: Give its Ki value. Item: POLYVINYL ALCOHOL
Response line: Not Active
